B1: glmS ribozyme (parent)
chain: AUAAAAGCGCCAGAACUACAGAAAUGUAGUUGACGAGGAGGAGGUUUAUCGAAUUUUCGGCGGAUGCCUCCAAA

variants of: B1; assay: self-cleavage kobs at 10000 uM GlcN6P; higher = faster cleavage; RNA array; conditions: with glucosamine-6-phosphate
Variants at the floor of the assay were thinned out.
measured-property: self-cleavage kobs at 10000 uM GlcN6P (s⁻¹)
Expressed in s⁻¹, but write only the number.

- G35A C50G U55A C61G: 0.000255
- A14G G40A A53U: 0.0182

**Query** For the variant C16U G40A , give its reported self-cleavage kobs at 10000 uM GlcN6P.
**Result** 0.00622

**Query** Note down self-cleavage kobs at 10000 uM GlcN6P recorded for G13U A15U
**Result** 0.000194

**Query** Answer with reported self-cleavage kobs at 10000 uM GlcN6P of C50U U54A
**Result** 5.02e-05

**Query** // fetch self-cleavage kobs at 10000 uM GlcN6P given entry G29C C71G
**Result** 8.49e-05
